study target: Proteasome subunit beta (Trypanosoma cruzi) (UniProt O96673)
Sequence (O96673 as listed by the source): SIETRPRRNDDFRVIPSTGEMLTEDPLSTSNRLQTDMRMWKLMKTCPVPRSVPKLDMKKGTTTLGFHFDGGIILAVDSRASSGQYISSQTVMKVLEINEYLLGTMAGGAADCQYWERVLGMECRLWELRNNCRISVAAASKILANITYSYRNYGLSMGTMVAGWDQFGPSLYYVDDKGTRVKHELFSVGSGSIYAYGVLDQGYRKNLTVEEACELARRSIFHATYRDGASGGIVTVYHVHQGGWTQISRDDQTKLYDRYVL
method notes: Trypanosoma cruzi proteasome chymotrypsin-like activity (TcProtChymo) assay. Further: in the data most compounds retested in dose-response had high values.
Format: functional
Parameters: scale not given: direction of the effect not stated beside the values
assay setup: 9.37 µM
observed property: Percent Effect (%)
Give the value, in units of %, as a plain number.

Some molecules with known Percent Effect results, for comparison:
molecule: Cc1cn(CC(=O)NC2CCN(C(=O)C3CC3)CC2)c2ccccc12
study target: Proteasome subunit beta (Trypanosoma cruzi) (UniProt O96673)
unit: %
observed value: 4.55
//
molecule: COc1ccnc(N2CCN(C(=O)c3csc(C(C)C)n3)CC2)n1
study target: Proteasome subunit beta (Trypanosoma cruzi) (UniProt O96673)
unit: %
observed value: 7.3
//
molecule: CN(Cc1cnn(C)c1)C(=O)NCc1nnc2n1CCC2
study target: Proteasome subunit beta (Trypanosoma cruzi) (UniProt O96673)
unit: %
observed value: -0.901

Kindly review the next molecule as well.
[in] Could you tell me which Percent Effect is on file for CCOC(=O)NC(CNC(=O)c1ncccn1)CC(C)C (configuration not stated) ?
[out] 11.8

====

study target: Ubiquitin-activating enzyme e1, putative (Leishmania donovani (strain BPK282A1))
method notes: Leishmania donovani Ubiquitin Activating Enzyme (LdE1)
Type: functional
Parameters: scale not given: direction of the effect not stated beside the values
assay setup: 30 µM
Measured potencies and affinities stand elsewhere.
Threshold check on Percent Effect: at or above 10% gives rule met, strictly below gives rule not met.

For orientation, consider the following solved cases.
compound: Cc1cc(CN2CCc3nn(C)c(=O)cc3C2)on1
class: rule met
--
compound: Cn1cc(-c2cnc(N3CCOCC3)nc2)cc1C(=O)NCCO
class: rule not met
--
compound: Cc1cccc(NC(=O)Cn2ncc(SCC(N)=O)c(Cl)c2=O)c1C
class: rule not met
--
compound: Cc1ccccc1C1CCCN1C(=O)CN1CC2(CCNCC2)OC1=O (stereo unspecified)
class: rule not met
--
compound: COC(=O)c1ccccc1NC(=O)c1nc2ccccc2n(C)c1=O
class: rule met
--
compound: Cc1cccc(CN2C(=O)CC[C@@H]3[C@H]2CCN3CC2CCOCC2)n1
class: rule met
--
compound: COc1ccc(C(=O)N(C)Cc2nnc3ccccn23)c(OC)c1
class: rule not met
--
compound: COC(=O)N1CCc2ccc(NC(=O)c3cn(C)nn3)cc2C1
class: rule met
--
compound: Cc1nn2c(N3CCC(O)C3)cc(-c3ccccc3)nc2c1C (stereo unspecified)
class: rule met
--
compound: c1cc(CNCc2ccnc(N3CCOCC3)c2)c2c(c1)OCCO2
class: rule not met

[in] Hello, I need to know if COc1ncccc1C(=O)N1CCN(C(=O)Cc2ccccn2)CC1 has measured Percent Effect not below 10%. Thanks!
[out] rule met

====

study target: Ubiquitin-activating enzyme e1, putative (Leishmania donovani (strain BPK282A1)) (UniProt E9BSI1)
Sequence (whole entry): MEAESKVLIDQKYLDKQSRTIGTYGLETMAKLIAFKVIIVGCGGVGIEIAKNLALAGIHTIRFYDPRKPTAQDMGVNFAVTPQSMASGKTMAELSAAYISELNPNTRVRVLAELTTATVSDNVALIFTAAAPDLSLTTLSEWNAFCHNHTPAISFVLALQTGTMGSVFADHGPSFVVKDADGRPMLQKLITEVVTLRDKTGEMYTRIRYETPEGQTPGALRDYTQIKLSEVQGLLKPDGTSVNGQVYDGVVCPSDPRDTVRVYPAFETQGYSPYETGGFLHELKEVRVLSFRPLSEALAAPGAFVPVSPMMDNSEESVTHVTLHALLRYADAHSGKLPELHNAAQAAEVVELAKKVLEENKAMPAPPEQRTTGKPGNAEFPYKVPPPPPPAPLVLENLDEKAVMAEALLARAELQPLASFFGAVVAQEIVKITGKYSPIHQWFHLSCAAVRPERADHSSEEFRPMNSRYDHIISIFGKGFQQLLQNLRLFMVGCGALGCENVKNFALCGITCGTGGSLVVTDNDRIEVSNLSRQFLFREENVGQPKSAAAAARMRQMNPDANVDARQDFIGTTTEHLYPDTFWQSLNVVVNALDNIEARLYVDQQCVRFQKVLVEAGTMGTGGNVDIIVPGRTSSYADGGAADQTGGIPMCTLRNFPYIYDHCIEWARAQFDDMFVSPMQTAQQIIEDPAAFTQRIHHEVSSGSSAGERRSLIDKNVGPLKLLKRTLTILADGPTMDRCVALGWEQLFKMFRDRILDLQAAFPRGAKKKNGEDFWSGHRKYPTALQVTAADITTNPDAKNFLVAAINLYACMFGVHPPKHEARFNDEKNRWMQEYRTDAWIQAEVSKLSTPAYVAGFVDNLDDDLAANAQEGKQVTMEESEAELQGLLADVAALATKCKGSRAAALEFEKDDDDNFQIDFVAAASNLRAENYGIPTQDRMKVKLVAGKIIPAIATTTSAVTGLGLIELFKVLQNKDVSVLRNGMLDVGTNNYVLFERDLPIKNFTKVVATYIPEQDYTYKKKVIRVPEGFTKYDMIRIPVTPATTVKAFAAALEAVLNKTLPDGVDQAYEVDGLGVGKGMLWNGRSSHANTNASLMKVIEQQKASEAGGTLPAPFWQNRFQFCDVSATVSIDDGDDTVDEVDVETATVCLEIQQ
method notes: Leishmania donovani Ubiquitin Activating Enzyme (LdE1)
Format: functional
Design: scale not given: direction of the effect not stated beside the values
assay setup: 30 µM
Measured potencies and affinities stand elsewhere.
observed property: Percent Effect (%)
Number only, in %; omit the unit.

[in] Bench note: what Percent Effect did Cc1cnc(C(=O)N2CCCC(n3ccnc3C)C2)cn1 (stereo not given) show?
[out] 5.26

[in] Return reported Percent Effect; argument: Cc1cc(C)n(C2CN(CC(O)COc3ccc(F)cc3)C2)n1 (stereo not given)
[out] -20.8

[in] Name the recorded Percent Effect for CCOc1ccccc1C(=O)NS(=O)(=O)c1ccc2c(c1)OCCCO2 .
[out] 5.26

[in] For the molecule shown here, CN(C)S(=O)(=O)N1CCC2(CCCN(Cc3ccc(F)cc3)C2=O)C1 (stereo not given) , give the reported Percent Effect.
[out] 8.22

[in] For the molecule shown here, Cc1nc(C2CCCN(C(=O)c3cc(Cl)c[nH]3)C2)no1 (stereo not given) , give the reported Percent Effect.
[out] 12.7

====

Listing of recorded Percent Effect by entry.
study target: Tyrosyl-tRNA synthetase, putative (Trypanosoma cruzi (strain CL Brener)) (UniProt Q4DSP6)
Sequence (whole entry): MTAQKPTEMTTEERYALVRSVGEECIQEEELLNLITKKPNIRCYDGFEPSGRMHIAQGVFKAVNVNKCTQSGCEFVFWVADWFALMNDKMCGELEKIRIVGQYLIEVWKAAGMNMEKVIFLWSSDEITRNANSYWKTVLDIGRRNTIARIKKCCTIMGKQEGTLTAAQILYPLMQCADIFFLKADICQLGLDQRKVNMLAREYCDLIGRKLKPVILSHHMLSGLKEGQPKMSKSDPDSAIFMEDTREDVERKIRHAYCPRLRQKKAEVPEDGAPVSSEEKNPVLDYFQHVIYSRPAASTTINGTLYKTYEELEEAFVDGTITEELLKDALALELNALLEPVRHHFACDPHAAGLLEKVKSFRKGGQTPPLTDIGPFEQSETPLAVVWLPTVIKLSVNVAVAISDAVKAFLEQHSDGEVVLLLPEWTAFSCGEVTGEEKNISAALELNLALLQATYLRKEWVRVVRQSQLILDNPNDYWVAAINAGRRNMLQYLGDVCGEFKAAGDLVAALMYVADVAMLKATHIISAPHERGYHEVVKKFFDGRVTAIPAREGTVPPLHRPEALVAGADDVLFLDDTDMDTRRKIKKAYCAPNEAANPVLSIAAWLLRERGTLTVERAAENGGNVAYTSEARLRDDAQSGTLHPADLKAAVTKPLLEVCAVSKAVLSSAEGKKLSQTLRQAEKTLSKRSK
method notes: Trypanosoma cruzi tyrosyl tRNA synthetase (TcYRS) SOP
Type: functional
Design: scale not given: direction of the effect not stated beside the values
assay setup: 30 µM
Give a bare numeral; the unit % is implied.

Reference set (2 entries):
molecule: Cc1cc(C(=O)NCC2COCc3c(C)nnn3C2)no1 (stereo not given)
study target: Tyrosyl-tRNA synthetase, putative (Trypanosoma cruzi (strain CL Brener)) (UniProt Q4DSP6)
observed value: 11.1
//
molecule: Cc1csc(N2CCN(C(=O)CCNc3ncccn3)CC2)n1
study target: Tyrosyl-tRNA synthetase, putative (Trypanosoma cruzi (strain CL Brener)) (UniProt Q4DSP6)
observed value: 16.1

Shift focus to the following entry.
[in] Value lookup for Percent Effect; key = Cc1cnn(CC2CCCCN2Cc2nc(N)c3ccccc3n2)c1 (stereo not given)
[out] 21.5

====

study target: Tyrosyl-tRNA synthetase, putative (Trypanosoma cruzi (strain CL Brener))
Sequence (whole entry): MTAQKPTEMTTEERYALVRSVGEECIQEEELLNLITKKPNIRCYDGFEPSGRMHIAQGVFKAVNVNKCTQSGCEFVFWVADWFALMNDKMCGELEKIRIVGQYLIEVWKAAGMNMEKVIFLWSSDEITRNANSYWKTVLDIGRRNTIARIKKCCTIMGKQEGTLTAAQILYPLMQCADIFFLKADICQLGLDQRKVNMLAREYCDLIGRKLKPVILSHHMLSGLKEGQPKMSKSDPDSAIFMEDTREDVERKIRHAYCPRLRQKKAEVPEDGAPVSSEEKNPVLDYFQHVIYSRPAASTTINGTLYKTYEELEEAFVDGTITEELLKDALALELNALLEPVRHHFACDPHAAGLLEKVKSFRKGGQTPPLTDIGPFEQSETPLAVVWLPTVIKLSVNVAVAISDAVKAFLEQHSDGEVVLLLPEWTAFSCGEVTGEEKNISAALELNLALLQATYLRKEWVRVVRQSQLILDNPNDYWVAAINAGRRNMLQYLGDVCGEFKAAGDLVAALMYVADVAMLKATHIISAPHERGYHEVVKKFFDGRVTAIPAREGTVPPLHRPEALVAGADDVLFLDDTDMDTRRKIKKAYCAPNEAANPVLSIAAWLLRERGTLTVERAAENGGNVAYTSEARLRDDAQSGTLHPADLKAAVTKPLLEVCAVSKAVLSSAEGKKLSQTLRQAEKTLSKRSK
method notes: Trypanosoma cruzi tyrosyl tRNA synthetase (TcYRS) SOP
Format: functional
Parameters: scale not given: direction of the effect not stated beside the values
assay setup: 30 µM
Percent Effect under 10% gets T, anything at or over 10% gets F.

compound: Cc1cc2c(=O)n3c(nc2s1)CCN(C(=O)c1cnn(C)c1C)CC3
class: F
//
compound: O=c1[nH]c2c(c(=O)n1C1CCCCC1)CCC2Nc1ccccc1Cl (stereo unspecified)
class: T
//
compound: CC(C)(C)c1n[nH]c(C2CN(C(=O)c3cc(C4CC4)on3)CCO2)n1 (stereo unspecified)
class: T
//
compound: Cc1nc(CN2C(=O)C[C@@H]3[C@@H]2CCN3C(=O)C2CCOCC2)cs1
class: T
//
compound: COCC1COCCC12CCN(C(=O)CCc1ccccc1)CC2 (stereo unspecified)
class: T
//
compound: N#CCCN(C(=O)CN1CCCC1c1ccsc1)c1ccccc1F (stereo unspecified)
class: T
//
compound: CN(C)S(=O)(=O)N1CCC2(CCCN(Cc3ccc(F)cc3)C2=O)C1 (stereo unspecified)
class: T
//
compound: COc1c(C2CCCN2C(=O)c2ccc(Cl)o2)c(C)nn1C (stereo unspecified)
class: F
//
compound: O=C(CN1CCCC1Cn1cncn1)Nc1cccnc1 (stereo unspecified)
class: F
//
compound: Cn1cc(CN2CC3(CCN(C(=O)c4ccoc4)C3)C2)cn1
class: T

From here, focus on the item given below.
[in] Quick check: Percent Effect of COCC(=O)N1CCO[C@H]2[C@H](OC)CC[C@@H]21 under 10%?
[out] T

Source: ChEMBL document CHEMBL3988442
